koff by entry:
# assay-system: T1, baboon EL (baboon)
# T1 construct: Heparin extract
# run-description: Biacore; EL captured by anti-C2-tag Ab; bivalent fit
Reply numerically in s⁻¹, unit not repeated.

The cases that follow already have their koff on record.
>  <binder>
7D4 (antibody, mouse IgG1, V domains shown, mouse IgG1 from hybridoma) VH: QIQLVQSGPELKKPGETVKISCKASGYTFTNYGMNWVKQAPGKDLKWMGWINTYSGVPTYADDFKGRFAFSLETSASTAYLQINNLKNEDTATYFCARFSYYGRHYFDYWGQGTTLTVSS VL: DIVLTQSPASLAVSLGQRATISCKASQSVDYDGDSYMNWYQQKPGQPPQLLIYAASNLGSGIPARFSGSGSGTDFTLNIHPVEEEDAATYYCHQSTDDPPWTFGGGTKLEIK

>  <experimental-result>
0.00035

$$$$
>  <binder>
13B3 (antibody, mouse IgG2a, V domains shown, mouse IgG2a from hybridoma; also called 13B3 (mouse mAb)) VH: EVQLQQSGPELLKPGASVKISCKASGYTFTEYTMHWVKQSHGKSLEWIGSINPYYGGTSYNEKFKDKATLTVDKSSNTAYMEFRSLTSEDCAVYYCARYGNYVGYFDYWGQGTTLTVSS VL: ENVLTQSPAIMSASLGEKVTMSCRASSSVHYMYWYQQKSDASPKLWIYYTSNLAPGVPDRFSGSGSGNSYSLTISSMEGEDAATYYCQQFTSSPYTFGGGTKLEIK

>  <experimental-result>
0.00031

$$$$

Q: Given 53A11 (antibody, mouse IgG2a, V domains shown, mouse IgG2a from hybridoma; also called 53A11 (mouse mAb)) VH: EVQLQQSGPELLKPGASVKISCKASGYTFTDYTMHWVKQSHGKSLEWIGGINPYYGGTTYNEKFKDKATLTVDKSSSTAYMELRSLTSEDSAVYYCAKGDYYGGSYNYWGQGTTLTVSS VL: DIVLTQSLATLSVTPGDSVSLSCRASQDISNSLHWYQQKSHESPRLLIKYASQSISGIPSRFSGSGSGTDFTLSINSVETEDFGMYFCQQSNSWPYTFGGGTKLEIK , state its recorded koff.
Ans: 0.00026

Q: Given 55A1 (antibody, mouse IgG2a, V domains shown, mouse IgG2a from hybridoma; also called 55A1 (mouse mAb)) VH: QIHLVQSGPELKKPGETVKISCKASGYTFTNYGMNWVKQAPGKGLKWMGWINTYSGVPTYAGDFKGRFAFSLETSASTAYLQINNLKNEDTATYFCARRGYYGRRYFDVWGTGTTVTVSS VL: DIVLTQSPASLAVSLGQRATISCKASQSVDYDVDSYMHWYQQKPGQPPKLLIYAASNLASGIPARFSGGGSGTDFTLNIHPVEEEDVATYYCQQTIEDPPTFGGGTKLEIK , state its recorded koff.
Ans: 0.00042
